# method_notes: Directional transport of [14C]-olaparib across MDCKII control (empty vector) monolayers
# Type: in vitro ADME, canine
# test_conditions: dog, MDCK
quantity_measured: Papp A→B at 120 min, 1 µM

1) O=C(c1cc(Cc2n[nH]c(=O)c3ccccc23)ccc1F)N1CCN(C(=O)C2CC2)CC1 [olaparib] : 1.66 ×10⁻⁶ cm/s

###

# method_notes: Olaparib PK in mice bearing intracranial G7 GBM xenografts (mass spectrometry)
# Type: in vivo, CD1 nude mice
# test_conditions: CD1 nude, mouse, tumor, po, 50 mg/kg, tumor olaparib concentration, range, intracranial G7 xenograft, 50 mg/kg oral gavage, 2 hours, 4 mice
quantity_measured: concentration at 2 h

1. O=C(c1cc(Cc2n[nH]c(=O)c3ccccc23)ccc1F)N1CCN(C(=O)C2CC2)CC1 [olaparib] : 110 to 2780 nM

###

# method_notes: Clinical PK: olaparib in tumor core, tumor margin and plasma of recurrent GBM patients (LC-MS)
# Format: in vivo, human
# test_conditions: human, tumor and plasma, oral, ratio between tumor and plasma olaparib concentrations, mean, surgical patients
quantity_measured: Kp

1. O=C(c1cc(Cc2n[nH]c(=O)c3ccccc23)ccc1F)N1CCN(C(=O)C2CC2)CC1 : 0.25

###

# method_notes: Clinical PK: olaparib in tumor core, tumor margin and plasma of recurrent GBM patients (LC-MS)
# Assay type: in vivo, human
# test_conditions: human, tumor and plasma, oral, ratio between tumor and plasma olaparib concentrations, range, surgical patients
quantity_measured: Kp

1) O=C(c1cc(Cc2n[nH]c(=O)c3ccccc23)ccc1F)N1CCN(C(=O)C2CC2)CC1 : 0.01 to 0.9

###

# method_notes: Directional transport of [14C]-olaparib across MDCKII control (empty vector) monolayers
# Format: in vitro ADME, canine
# test_conditions: dog, MDCK
quantity_measured: Papp B→A at 120 min, 10 µM (×10⁻⁶ cm/s)

1. O=C(c1cc(Cc2n[nH]c(=O)c3ccccc23)ccc1F)N1CCN(C(=O)C2CC2)CC1 : 28.1

###

# test_system: MDR1 (Homo sapiens)
# Construct: host or cells: MDCKII (Madin-Darby canine kidney type II) cells stably expressing human MDR1 cDNA
# method_notes: Directional transport of [14C]-olaparib across MDCKII-MDR1 monolayers, with or without ketoconazole
# Assay type: in vitro ADME
# test_conditions: MDCK-MDR1, read-out: Papp b-a (SD)
quantity_measured: Papp B→A at 120 min, 10 µM (×10⁻⁶ cm/s)

1) O=C(c1cc(Cc2n[nH]c(=O)c3ccccc23)ccc1F)N1CCN(C(=O)C2CC2)CC1 : 39.4

###

# method_notes: Olaparib PK in mice bearing intracranial G7 GBM xenografts (mass spectrometry)
# Format: in vivo, CD1 nude mice
# test_conditions: CD1 nude, mouse, plasma, oral, 50 mg/kg, plasma olaparib level, range, 50 mg/kg oral gavage, 2 hours
quantity_measured: concentration at 2 h

1. O=C(c1cc(Cc2n[nH]c(=O)c3ccccc23)ccc1F)N1CCN(C(=O)C2CC2)CC1 : 773 to 2830 nM

###

# test_system: MDR1 (Homo sapiens, UniProt P08183)
# Construct: host or cells: MDCKII (Madin-Darby canine kidney type II) cells stably expressing human MDR1 cDNA
# Sequence (P08183 whole entry): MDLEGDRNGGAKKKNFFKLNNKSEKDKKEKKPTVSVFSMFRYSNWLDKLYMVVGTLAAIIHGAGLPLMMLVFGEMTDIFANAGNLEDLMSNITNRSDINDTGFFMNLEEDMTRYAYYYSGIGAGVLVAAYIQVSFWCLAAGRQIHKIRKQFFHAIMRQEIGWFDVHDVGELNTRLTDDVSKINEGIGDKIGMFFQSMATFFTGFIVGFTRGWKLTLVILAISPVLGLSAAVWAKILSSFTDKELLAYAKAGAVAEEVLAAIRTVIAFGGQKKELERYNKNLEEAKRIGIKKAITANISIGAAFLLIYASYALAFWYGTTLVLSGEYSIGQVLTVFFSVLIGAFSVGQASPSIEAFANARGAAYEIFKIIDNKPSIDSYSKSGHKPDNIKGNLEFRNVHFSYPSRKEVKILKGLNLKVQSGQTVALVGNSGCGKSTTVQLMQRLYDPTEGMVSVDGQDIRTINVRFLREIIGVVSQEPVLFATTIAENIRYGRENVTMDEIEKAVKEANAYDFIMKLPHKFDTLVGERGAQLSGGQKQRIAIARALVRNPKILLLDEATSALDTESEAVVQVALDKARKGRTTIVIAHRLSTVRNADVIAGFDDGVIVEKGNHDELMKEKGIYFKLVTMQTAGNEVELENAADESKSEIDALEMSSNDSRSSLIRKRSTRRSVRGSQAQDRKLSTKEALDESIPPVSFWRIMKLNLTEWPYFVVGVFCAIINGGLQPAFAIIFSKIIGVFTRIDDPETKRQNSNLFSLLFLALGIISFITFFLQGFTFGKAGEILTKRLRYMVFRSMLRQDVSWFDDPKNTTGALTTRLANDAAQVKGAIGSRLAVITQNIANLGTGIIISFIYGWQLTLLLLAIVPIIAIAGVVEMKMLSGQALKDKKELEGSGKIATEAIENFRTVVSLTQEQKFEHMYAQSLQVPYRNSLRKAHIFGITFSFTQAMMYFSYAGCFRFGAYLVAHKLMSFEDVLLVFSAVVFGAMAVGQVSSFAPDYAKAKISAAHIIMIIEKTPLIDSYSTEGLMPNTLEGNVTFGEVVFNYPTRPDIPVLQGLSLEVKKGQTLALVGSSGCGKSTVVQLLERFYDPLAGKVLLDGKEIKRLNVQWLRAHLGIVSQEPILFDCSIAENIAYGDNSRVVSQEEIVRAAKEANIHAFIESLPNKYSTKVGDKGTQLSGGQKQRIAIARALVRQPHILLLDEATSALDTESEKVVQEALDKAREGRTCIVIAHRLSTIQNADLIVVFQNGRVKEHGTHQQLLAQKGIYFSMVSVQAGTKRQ
# method_notes: Directional transport of [14C]-olaparib across MDCKII-MDR1 monolayers, with or without ketoconazole
# Type: in vitro ADME
# test_conditions: MDCK-MDR1
quantity_measured: Papp A→B at 120 min, 1 µM (×10⁻⁶ cm/s)

1) O=C(c1cc(Cc2n[nH]c(=O)c3ccccc23)ccc1F)N1CCN(C(=O)C2CC2)CC1 [olaparib] : 0.28

###

# method_notes: Olaparib PK in mice bearing intracranial G7 GBM xenografts (mass spectrometry)
# Type: in vivo, CD1 nude mice
# test_conditions: CD1 nude, mouse, contralateral (non-tumor bearing) brain, oral, 50 mg/kg, contralateral (non-tumor bearing) cerebral hemisphere olaparib concentration, range, 50 mg/kg oral gavage, 2 hours
quantity_measured: concentration at 2 h

1. O=C(c1cc(Cc2n[nH]c(=O)c3ccccc23)ccc1F)N1CCN(C(=O)C2CC2)CC1 : 53 to 114 nM

###

# test_system: MDR1 (Homo sapiens, UniProt P08183)
# Construct: host or cells: MDCKII (Madin-Darby canine kidney type II) cells stably expressing human MDR1 cDNA
# method_notes: Directional transport of [14C]-olaparib across MDCKII-MDR1 monolayers, with or without ketoconazole
# Type: in vitro ADME
# test_conditions: MDCK-MDR1, with ketoconazole 25 µM, read-out: Papp b-a + ketoconazole (SD)
quantity_measured: Papp B→A at 120 min, 10 µM (×10⁻⁶ cm/s)

1. O=C(c1cc(Cc2n[nH]c(=O)c3ccccc23)ccc1F)N1CCN(C(=O)C2CC2)CC1 : 17.1

###

# method_notes: Olaparib PK in mice bearing intracranial G7 GBM xenografts (mass spectrometry)
# Format: in vivo, CD1 nude mice
# test_conditions: CD1 nude, mouse, plasma, oral, 50 mg/kg, plasma olaparib level, median, 50 mg/kg oral gavage, 2 hours
quantity_measured: concentration at 2 h (nM)

1. O=C(c1cc(Cc2n[nH]c(=O)c3ccccc23)ccc1F)N1CCN(C(=O)C2CC2)CC1 [olaparib] : 1590

###

# method_notes: Directional transport of [14C]-olaparib across MDCKII control (empty vector) monolayers
# Format: in vitro ADME, canine
# test_conditions: dog, MDCK
quantity_measured: Papp A→B at 120 min, 3 µM (×10⁻⁶ cm/s)

1) O=C(c1cc(Cc2n[nH]c(=O)c3ccccc23)ccc1F)N1CCN(C(=O)C2CC2)CC1 : 2.23

###

# method_notes: Olaparib PK in mice bearing intracranial G7 GBM xenografts (mass spectrometry)
# Assay type: in vivo, CD1 nude mice
# test_conditions: CD1 nude, mouse, contralateral (non-tumor bearing) brain, oral, 50 mg/kg, contralateral (non-tumor bearing) cerebral hemisphere olaparib concentration, median, 50 mg/kg oral gavage, 2 hours
quantity_measured: concentration at 2 h

1. O=C(c1cc(Cc2n[nH]c(=O)c3ccccc23)ccc1F)N1CCN(C(=O)C2CC2)CC1 : 84 nM

###

# test_system: MDR1 (Homo sapiens, UniProt P08183)
# Construct: host or cells: MDCKII (Madin-Darby canine kidney type II) cells stably expressing human MDR1 cDNA
# method_notes: Directional transport of [14C]-olaparib across MDCKII-MDR1 monolayers, with or without ketoconazole
# Format: in vitro ADME
# test_conditions: human, MDCK-MDR1
quantity_measured: Papp A→B at 120 min, 3 µM (×10⁻⁶ cm/s)

1. O=C(c1cc(Cc2n[nH]c(=O)c3ccccc23)ccc1F)N1CCN(C(=O)C2CC2)CC1 : 0.53

###

# method_notes: Olaparib PK in mice bearing intracranial G7 GBM xenografts (mass spectrometry)
# Format: in vivo, CD1 nude mice
# test_conditions: CD1 nude, mouse, tumor, po, 50 mg/kg, tumor olaparib concentration, median, intracranial G7 xenograft, 50 mg/kg oral gavage, 2 hours
quantity_measured: concentration at 2 h (nM)

1. O=C(c1cc(Cc2n[nH]c(=O)c3ccccc23)ccc1F)N1CCN(C(=O)C2CC2)CC1 : 347

###

# test_system: MDR1 (Homo sapiens, UniProt P08183)
# Construct: host or cells: MDCKII (Madin-Darby canine kidney type II) cells stably expressing human MDR1 cDNA
# method_notes: Directional transport of [14C]-olaparib across MDCKII-MDR1 monolayers, with or without ketoconazole
# Assay type: in vitro ADME
# test_conditions: MDCK-MDR1
quantity_measured: Papp B→A at 120 min, 1 µM (×10⁻⁶ cm/s)

1. O=C(c1cc(Cc2n[nH]c(=O)c3ccccc23)ccc1F)N1CCN(C(=O)C2CC2)CC1 [olaparib] : 40.6

Origin of the recorded values: paper PMC7746945
